Values were extracted from ChEMBL document CHEMBL1127224.

Test system: CV-1
test: Antiviral efficacy measured by a hybrid HIV-l/vaccinia virus infected monkey cell line (HIV- l/vVK-1 infected CV- 1) which produces HIV-1 gag-pol derived polyproteins
Assay type: functional, cell-based, Human immunodeficiency virus 1
condition-description: Chlorocebus aethiops
Hi! Just check whether IC50 is below 300 nM. Below gives yes (1), equal or above gives no (0).

compound | discrete-label
CC[C@H](C)[C@H](NC(=O)[C@H](C(C)C)[C@@H](O)[C@H](O)[C@H](CC1CCCCC1)NC(=O)[C@H](Cc1c[nH]cn1)NC(=O)COc1cccc2ccccc12)C(=O)NCc1ccccn1 | yes (1)
CCC(C)[C@H](NC(=O)[C@@H](C[C@H](O)[C@H](CC1CCCCC1)NC(=O)CC(C)(C)C)C(C)C)C(=O)NCc1ccccn1 (stereo partly drawn) | no (0)
CCC(C)[C@H](NC(=O)[C@@H](C[C@H](O)[C@H](CC1CCCCC1)NC(=O)[C@H](Cc1cnc[nH]1)NC(=O)OC(C)(C)C)C(C)C)C(=O)NCc1ccccn1 (stereo partly drawn) | no (0)
CCC(C)[C@H](NC(=O)[C@@H](C[C@H](O)[C@H](CC1CCCCC1)NC(=O)[C@H](Cc1cn(C)cn1)NC(=O)COc1cccc2ccccc12)C(C)C)C(=O)NCc1ccccn1 (stereo partly drawn) | no (0)
CCCCCC(=O)N[C@@H](CC1CCCCC1)[C@@H](O)C[C@H](C(=O)N[C@H](C(=O)NCc1ccccn1)C(C)CC)C(C)C (stereo partly drawn) | no (0)
CCC(C)[C@H](NC(=O)[C@@H](C[C@H](O)[C@H](CC1CCCCC1)NC(=O)COc1ccccc1)C(C)C)C(=O)NCc1ccccn1 (stereo partly drawn) | no (0)

----------
measured-target: UniProt:Q72874
Hi! Just check whether Ki is below 20 nM. Below gives 1, equal or above gives -1.

molecule | measured-target | discrete-label
CCC(C)[C@H](NC(=O)[C@@H](C[C@H](O)[C@H](CC1CCCCC1)NC(=O)COc1ccccc1)C(C)C)C(=O)NCc1ccccn1 (stereo partly specified) | UniProt:Q72874 | -1
CC[C@H](C)[C@H](NC(=O)[C@@H](C[C@H](O)[C@@H](N)CC1CCCCC1)C(C)C)C(=O)NCc1ccccn1 | UniProt:Q72874 | -1
CC[C@H](C)[C@H](NC(=O)[C@@H](C[C@H](O)[C@H](CC1CCCCC1)NC(C)=O)C(C)C)C(=O)NCc1cccc[n+]1[O-] | UniProt:Q72874 | 1
CCC(C)[C@H](NC(=O)[C@@H](C[C@H](O)[C@H](CC1CCCCC1)NC(=O)[C@H](Cc1cn(C)cn1)NC(=O)COc1cccc2ccccc12)C(C)C)C(=O)NCc1ccccn1 (stereo partly specified) | UniProt:Q72874 | -1
CC[C@H](C)[C@H](NC(=O)[C@@H](C[C@H](O)[C@H](CC1CCCCC1)NC(C)=O)C(C)C)C(=O)NCc1ccccn1 | UniProt:Q72874 | 1
CCC(C)[C@H](NC(=O)[C@@H](C[C@H](O)[C@H](CC1CCCCC1)NC(=O)[C@H](Cc1cnc[nH]1)NC(=O)OC(C)(C)C)C(C)C)C(=O)NCc1ccccn1 (stereo partly specified) | UniProt:Q72874 | 1

----------
measured-target: Pepsin A (Sus scrofa)
Sequence (P00791 whole entry): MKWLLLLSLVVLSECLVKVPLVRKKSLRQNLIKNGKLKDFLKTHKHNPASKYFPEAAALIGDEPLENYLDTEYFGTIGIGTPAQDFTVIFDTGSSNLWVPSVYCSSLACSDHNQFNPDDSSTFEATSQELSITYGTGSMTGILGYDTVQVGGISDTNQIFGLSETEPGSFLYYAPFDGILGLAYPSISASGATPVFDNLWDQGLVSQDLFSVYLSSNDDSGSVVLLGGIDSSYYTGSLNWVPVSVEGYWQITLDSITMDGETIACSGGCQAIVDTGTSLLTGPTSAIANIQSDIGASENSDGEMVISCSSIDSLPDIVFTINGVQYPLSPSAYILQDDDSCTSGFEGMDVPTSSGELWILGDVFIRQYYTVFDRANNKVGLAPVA
Each record here notes measured Ki.
observation-type: Ki (nM)

molecule | observation-type | recorded-result
CC[C@H](C)[C@H](NC(=O)[C@H](C(C)C)[C@@H](O)[C@H](O)[C@H](CC1CCCCC1)NC(=O)[C@H](Cc1c[nH]cn1)NC(=O)COc1cccc2ccccc12)C(=O)NCc1ccccn1 | Ki | 265
CCC(C)[C@H](NC(=O)[C@@H](C[C@H](O)[C@H](CC1CCCCC1)NC(=O)[C@H](CC(N)=O)NC(=O)c1ccc2ccccc2n1)C(C)C)C(=O)NCc1ccccn1 (some centres undefined) | Ki | 12
CCC(C)[C@H](NC(=O)[C@@H](C[C@H](O)[C@H](CC1CCCCC1)NC(=O)OC(C)(C)C)C(C)C)C(=O)NCc1ccccn1 (some centres undefined) | Ki | 330
CCC(C)[C@H](NC(=O)[C@@H](C[C@H](O)[C@H](CC1CCCCC1)NC(=O)[C@H](Cc1c[nH]cn1)NC(=O)COc1cccc2ccccc12)C(C)C)C(=O)NCc1ccccn1 (some centres undefined) | Ki | 290
